Biological target: T1, Recombinant Human PD-L1-TVMV-His (human, UniProt Q9NZQ7 19-239)
T1 construct: expressed in HEK293T cells; also called PD-L1-His; hPD-L1(19-239)-TVMV-His
T1 sequence (Q9NZQ7 other isoform, or with tags, fused parts or gaps limits assumed): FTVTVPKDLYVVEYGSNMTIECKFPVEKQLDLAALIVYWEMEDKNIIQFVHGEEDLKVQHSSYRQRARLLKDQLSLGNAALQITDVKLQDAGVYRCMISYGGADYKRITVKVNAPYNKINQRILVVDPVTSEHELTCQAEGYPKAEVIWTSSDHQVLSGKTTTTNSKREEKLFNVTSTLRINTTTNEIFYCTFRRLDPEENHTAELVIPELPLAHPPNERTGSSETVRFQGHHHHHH
Test: HTRF vs PD-1-Ig
Text: Homogenous Time-Resolved Fluorescence (HTRF) Assays of Binding of Soluble PD-1 to Soluble PD-L1. Soluble PD-1 and soluble PD-L1 refers to proteins with carboxyl-end truncations that remove the transmembrane-spanning regions and are fused to heterologous sequences, specifically the Fc portion of the human immunoglobuling G sequence (Ig) or the hexahistidine epitope tag (His). […]
Starred links: 1 amine or outer side, 2 acyl side, 3 side chain; linkers in the order of their positions; H or OH if unused. Positions of bridges follow the written chain, without caps; N, C: chain ends. Non-standard residues stand in square brackets, D forms with d. Groups on a side chain read outwards from the residue. Primed or numbered codes have the meaning given here. No end group written: not given here. *: point of attachment. PEG8′ = PEG8 unit (23-azido-3,6,9,12,15,18,21-heptaoxatricosyl, i.e. an eight-unit PEG spacer) linking the triazole to vitamin E succinate; Pra′ = propargylglycine (built in as LPH), clicked to a 1-substituted triazol-4-yl-alanine, O=C([C@H](Cc1cn([*:3])nn1)N[*:1])[*:2]; X1 = (S)‑3‑carboxy‑3‑(15-carboxypentadecanoylamino)propyl, O=C(O)CCCCCCCCCCCCCCC(=O)N[C@@H](CC*)C(=O)O; Pra″ = its azide, alkyne or alkene has reacted where a group follows in round brackets; X2 = (S)‑3‑carboxy‑3‑palmitamidopropyl, CCCCCCCCCCCCCCCC(=O)N[C@@H](CC*)C(=O)O; Pra(3) = propargylglycine, clicked to an azide to give a triazolyl-alanine; triazole = 1,2,3-triazole formed by click of the Pra alkyne with the azide; Trp(1-CH2CO) = O=C([C@H](Cc1cn(CC(=O)[*:3])c2ccccc12)N[*:1])[*:2]; Phe(3,4,5-F3) = N[C@@H](Cc1cc(F)c(F)c(F)c1)C(=O)O; Biotin = O=C1N[C@H]2[C@H](CS[C@H]2CCCCC(=O)*)N1; C18 diacid = O=C(O)CCCCCCCCCCCCCCCCC(=O)*; Phe(4-F) = N[C@@H](Cc1ccc(F)cc1)C(=O)O; γGlu = O=C(O)[C@H](CCC(=O)[*:2])N[*:1]; Palmitoyl = CCCCCCCCCCCCCCCC(=O)*; Hyp = O=C(O)[C@@H]1C[C@@H](O)CN1; NMeF = CN[C@@H](Cc1ccccc1)C(=O)O; NMeE = CN[C@@H](CCC(=O)O)C(=O)O; dHyp = O=C(O)[C@H]1C[C@H](O)CN1; NMeNle = CCCC[C@H](NC)C(=O)O; Suc = O=C(CCC(=O)[*:2])[*:1]; triazole″ = not defined here; Pip = O=C(O)[C@@H]1CCCCN1; NMeA = CN[C@@H](C)C(=O)O; PEG7′ = not defined here; Pra = C#CC[C@H](N)C(=O)O; Dab = NCC[C@H](N)C(=O)O; Dap = NC[C@H](N)C(=O)O; Sar = CNCC(=O)O
MEASUREMENT TYPE: pIC50
Scale for pIC50: -log10 of concentration given in mol/L; no unit attached.

Query block: Please give measured pIC50 of the following entry: {CH2CO}-Y[NMeA]DPHK[Hyp]WK[Trp(1-CH2CO)][NMeNle][NMeNle]ECG[Pra] (thioether N-14; not fully specified (C-terminus); printed as ClAc-Tyr-mAla-Asp-Pro-His-Lys-Hyp-Trp-Lys-Trp(1-carboxymethyl)-mNle-mNle-Glu-Cys-Gly-[(S)-propargylglycine], cyclised ClAc-Cys, also called Intermediate 1400J) [INT-1400J]
Result block: 8.06

Query block: Supply reported pIC50 belonging to this binder: {CH2CO}-Y[NMeA]DPHK[Hyp]WK[Trp(1-CH2CO)][NMeNle][NMeNle]ECG[Pra′]([triazole-X2]) (thioether N-14) [Example 14072]
Result block: 8.07

Query block: // fetch pIC50 given entry {CH2CO}-Y[NMeA]NP[Dap]L[Hyp]W[Dab][Trp(1-CH2CO)][NMeNle][NMeNle]LCGG[Pra″]([triazole-PEG7′-γGlu-C18 diacid]) (thioether N-14 (inferred)) [Example 13123]
Result block: 6.82

Query block: Note pIC50 for the binder shown: FFXPDVFDPWYLCGX (as m17 (INT 1400L); Pra triazole-linked to vitamin E succinate 5-azidopentylamide) [Example 14088]
Result block: 6.10

Query block: Check the records and state pIC50 for {CH2CO}-[Phe(3,4,5-F3)][NMeF][NMeNle][dHyp]DV[NMeF]D[dP]WYLCG[Pra″]([triazole-(S)‑3‑carboxy‑3‑aminopropyl-Palmitoyl]) (thioether N-13; not fully specified; printed as ClAc-F3Phe-mPhe-mNle-dHyp-Asp-Val-mPhe-Asp-dPro-Trp-Tyr-Leu-Cys-Gly-[(S)-propargylglycine]) [Example 14084]
Result block: 6.20

Query block: Given {CH2CO}-[Phe(4-F)][Pip]DP[Dap]L[Hyp]W[Dab][Trp(1-CH2CO)][NMeNle][NMeNle]LCG[Dab]([γGlu-C18 diacid]) (thioether N-14 (inferred)) [Example 13150] , respond with its pIC50.
Result block: 7.68

Query block: Supply reported pIC50 belonging to this binder: {CH2CO}-Y[NMeA]DPHK[Hyp]WKW[NMeNle][NMeNle]ECG[Pra′]([triazole-X1]) (thioether N-14) [Example 14067]
Result block: 7.98

Query block: Consider the binder {CH2CO}-Y[NMeA]DPHQ[Hyp]WSW[NMeNle][NMeNle]ECG[Pra(3)]([triazole″-PEG8′-Suc-vitamin E])G (thioether N-14; reading uncertain) [Example 14055] . State its measured pIC50.
Result block: 6.41

Query block: Output pIC50 of {CH2CO}-Y[NMeA]DPHK[Hyp]WK[Trp(1-CH2CO)][NMeNle][NMeNle]ECG[Pra′]([triazole-X1]) (thioether N-14) [Example 14078]
Result block: 7.97

Query block: Using known records, supply pIC50 for {CH2CO}-F[NMeF][NMeNle][Sar]DV[NMeF]Y[NMeE]WYLCGGGK([PEG4‑propionyl-Biotin])-NH2 (thioether N-13) [Example 3620]
Result block: 8.05
